From: patent US12692261B2

# reported pIC50; entries follow
TESTED TARGET: full-length human CSNK1A1 (Homo sapiens)
Construct: N-terminal Glutathion-S-Transferase (GST) and full-length human CSNK1A1; purchased Life Technologies PV4174; host or cells: baculovirus infected insect cells
ASSAY PROCEDURE: CSNK1A1 Assay 2 (ADP-Glo, 1 μM ATP, substrate biotin-Ahx-KRRRAL-pS-VASLPGL)
Format: biochemical
EXPERIMENTAL PARAMETERS: Table 3, read-out: CSNK1A1 Assay 2 IC50 [mol/l] (median)
Experimental: CSNK1A1-inhibitory activity of compounds of the present invention in presence of 1 μM adenosine-tri-phosphate (ATP) was quantified employing the CSNK1A1 assay as described in the following paragraphs. In essence, the enzyme activity is measured by quantification of the adenosine-di-phosphate (ADP), which is generated as a co-product of the enzyme reaction, via the “ADP-Glo™ Kinase Assay” kit from the company Promega. […]
pIC50: −log10 of the molar value.

MOLECULE: O=C(Nc1cc(-c2[nH]c3cccnc3c2-c2ccccn2)ccn1)C(CC(F)F)c1ccc(F)cc1 (racemic) [Example 10]
pIC50: 8.58
--
MOLECULE: O=C(Nc1cc(-c2[nH]c3nc(OC(F)F)cnc3c2-c2ccccn2)ccn1)C(CC(F)F)c1ccc(F)cc1 (single isomer, unassigned) [Example 107]
pIC50: 7.19
--
MOLECULE: O=C(Nc1cc(-c2[nH]c3ccc(F)nc3c2-c2ccccn2)ccn1)[C@H](CC(F)F)c1ccc(F)cc1 (single isomer, unassigned)
pIC50: 8.04
--
MOLECULE: Cc1cnc2c(-c3ccccn3)c(-c3ccnc(NC(=O)C(CC(F)F)c4ccc(F)cc4)c3)[nH]c2c1 (racemic) [Example 7]
pIC50: 8.56
--
MOLECULE: O=C(Nc1cc(-c2[nH]c3c(OCC(F)(F)F)ncnc3c2-c2ccccn2)ccn1)C(CC(F)(F)F)c1ccc(F)cc1 (racemic) [Example 125]
pIC50: 7.83
--
MOLECULE: O=C(Nc1cc(-c2[nH]c3cccnc3c2-c2ccccc2)ccn1)C(CC(F)F)c1ccc(F)cc1 (single isomer, unassigned; (-)) [Example 23]
pIC50: 7.47
--
MOLECULE: Cc1ccc2[nH]c(-c3ccnc(NC(=O)C(CC(F)F)c4ccc(F)cc4)c3)c(-c3ccccn3)c2n1 (single isomer, unassigned) [Example 6]
pIC50: 7.17
--
MOLECULE: O=C(Nc1cc(-c2[nH]c3c(OCC(F)(F)F)ncnc3c2-c2ccccn2)ccn1)C(CC(F)F)c1ccc(F)cc1 (racemic) [Example 122]
pIC50: 8.11
--
MOLECULE: O=C(Nc1cc(-c2[nH]c3c(O[C@H]4CCOC4)ncnc3c2-c2ccccn2)ccn1)C(CC(F)F)c1ccc(F)cc1 (single isomer, unassigned) [Example 73]
pIC50: 8.38
--
MOLECULE: COc1cnc2c(-c3ccccn3)c(-c3ccnc(NC(=O)C(CC(F)F)c4ccc(F)cc4)c3)[nH]c2c1 (single isomer, unassigned) [Example 82]
pIC50: 8.57
--
MOLECULE: O=C(Nc1cc(-c2[nH]c3cccnc3c2-c2cccc(F)n2)ccn1)C(CC(F)F)c1ccc(F)cc1 (single isomer, unassigned; (-)) [Example 26]
pIC50: 7.80
--
MOLECULE: O=C(Nc1cc(-c2[nH]c3c(OCC4CC4)ncnc3c2-c2ccccn2)ccn1)C(CC(F)F)c1ccc(F)cc1 (single isomer, unassigned) [Example 129]
pIC50: 8.34

====

Catalogue of pIC50 readings, one per entry.
TESTED TARGET: full-length human CSNK1A1 (Homo sapiens)
Construct: N-terminal Glutathion-S-Transferase (GST) and full-length human CSNK1A1; purchased Life Technologies PV4174; host or cells: baculovirus infected insect cells
ASSAY PROCEDURE: CSNK1A1 Assay 2 (ADP-Glo, 1 μM ATP, substrate biotin-Ahx-KRRRAL-pS-VASLPGL)
Format: biochemical
EXPERIMENTAL PARAMETERS: Table 3, read-out: CSNK1A1 Assay 2 IC50 [mol/l] (median)
pIC50: −log10 of the molar value.

COMPOUND: O=C(Nc1cc(-c2[nH]c3cc(Cl)cnc3c2-c2ccccn2)ccn1)C(CC(F)F)c1ccc(F)cc1 (single isomer, unassigned) [Example 89]
TESTED TARGET: full-length human CSNK1A1 (Homo sapiens)
pIC50: 7.05
//
COMPOUND: O=C(Nc1cc(-c2[nH]c3cc(F)cnc3c2-c2ccccc2)ccn1)C(CC(F)F)c1ccc(F)cc1 (single isomer, unassigned; (-)) [Example 20]
TESTED TARGET: full-length human CSNK1A1 (Homo sapiens)
pIC50: 6.88
//
COMPOUND: O=C(Nc1cc(-c2[nH]c3c(OCC(F)F)ccnc3c2-c2ccccn2)ccn1)C(CC(F)F)c1ccc(F)cc1 (single isomer, unassigned) [Example 77]
TESTED TARGET: full-length human CSNK1A1 (Homo sapiens)
pIC50: 8.14
//
COMPOUND: O=C(Nc1cc(-c2[nH]c3c(OCC(F)F)ccnc3c2-c2ccccn2)ccn1)C(CC(F)F)c1ccc(F)cc1 (single isomer, unassigned) [Example 76]
TESTED TARGET: full-length human CSNK1A1 (Homo sapiens)
pIC50: 8.53
//
COMPOUND: COc1cc(F)nc2c(-c3ccccn3)c(-c3ccnc(NC(=O)C(CC(F)F)c4ccc(F)cc4)c3)[nH]c12 (racemic) [Example 39]
TESTED TARGET: full-length human CSNK1A1 (Homo sapiens)
pIC50: 7.72
//
COMPOUND: O=C(Nc1cc(-c2[nH]c3c(OCC(F)F)cc(F)nc3c2-c2ccccn2)ccn1)C(CC(F)F)c1ccc(F)cc1 (racemic) [Example 28]
TESTED TARGET: full-length human CSNK1A1 (Homo sapiens)
pIC50: 8.40

====

TESTED TARGET: full-length human CSNK1A1 (Homo sapiens, UniProt P48729)
Construct: N-terminal Glutathion-S-Transferase (GST) and full-length human CSNK1A1; purchased Life Technologies PV4174; host or cells: baculovirus infected insect cells
Sequence (P48729 whole entry): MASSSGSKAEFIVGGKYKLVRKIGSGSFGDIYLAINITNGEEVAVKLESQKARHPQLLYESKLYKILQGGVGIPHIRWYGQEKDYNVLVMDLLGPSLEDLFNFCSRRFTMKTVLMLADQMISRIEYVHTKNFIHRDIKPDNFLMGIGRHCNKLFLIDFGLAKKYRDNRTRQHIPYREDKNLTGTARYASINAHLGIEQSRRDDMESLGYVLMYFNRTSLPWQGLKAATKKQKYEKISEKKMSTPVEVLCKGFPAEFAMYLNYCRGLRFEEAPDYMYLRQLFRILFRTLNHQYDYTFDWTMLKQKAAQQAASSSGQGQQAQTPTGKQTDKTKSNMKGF
ASSAY PROCEDURE: CSNK1A1 Assay 2 (ADP-Glo, 1 μM ATP, substrate biotin-Ahx-KRRRAL-pS-VASLPGL)
Assay type: biochemical
EXPERIMENTAL PARAMETERS: Table 3, read-out: CSNK1A1 Assay 2 IC50 [mol/l] (median)
pIC50: −log10 of the molar value.
Measured pIC50 accompanies every entry in the list below.
OBSERVABLE: pIC50

COMPOUND: O=C(Nc1cc(-c2[nH]c3cc(F)cnc3c2-c2ccccn2)ccn1)C(CC(F)F)c1ccc(F)cc1 (single isomer, unassigned; (-)) [Example 18]
OBSERVABLE: pIC50
MEASURED VALUE: 7.79
--
COMPOUND: O=C(Nc1cc(-c2[nH]c3c(OCC(F)(F)F)ncnc3c2-c2ccccn2)ccn1)C(CC(F)(F)F)c1ccc(F)cc1 (single isomer, unassigned) [Example 126]
OBSERVABLE: pIC50
MEASURED VALUE: 8.23
--
COMPOUND: O=C(Nc1cc(-c2[nH]c3cc(F)cnc3c2-c2ccccn2)ccn1)C(CC(F)F)c1ccc(F)cc1 (single isomer, unassigned; (+)) [Example 17]
OBSERVABLE: pIC50
MEASURED VALUE: 8.77
--
COMPOUND: O=C(Nc1cc(-c2[nH]c3c(C4CCCO4)cc(F)nc3c2-c2ccccn2)ccn1)C(CC(F)F)c1ccc(F)cc1 (single isomer, unassigned) [Example 115]
OBSERVABLE: pIC50
MEASURED VALUE: 8.23
--
COMPOUND: Cc1ccc2[nH]c(-c3ccnc(NC(=O)C(CC(F)F)c4ccc(F)cc4)c3)c(-c3ccccn3)c2n1 (racemic) [Example 4]
OBSERVABLE: pIC50
MEASURED VALUE: 8.19
--
COMPOUND: O=C(Nc1cc(-c2[nH]c3cc(F)cnc3c2-c2ccccn2)ccn1)C(CO)c1ccc(F)cc1 (racemic)
OBSERVABLE: pIC50
MEASURED VALUE: 8.09

====

TESTED TARGET: full-length human CSNK1A1 (Homo sapiens, UniProt P48729)
Construct: N-terminal Glutathion-S-Transferase (GST) and full-length human CSNK1A1; purchased Life Technologies PV4174; host or cells: baculovirus infected insect cells
ASSAY PROCEDURE: CSNK1A1 Assay 2 (ADP-Glo, 1 μM ATP, substrate biotin-Ahx-KRRRAL-pS-VASLPGL)
Type: biochemical
EXPERIMENTAL PARAMETERS: Table 3, read-out: CSNK1A1 Assay 2 IC50 [mol/l] (median)
IC50 values by entry

COMPOUND: O=C(Nc1cc(-c2[nH]c3ccc(F)nc3c2-c2cc(F)ccn2)ccn1)C(CC(F)F)c1ccc(F)cc1 (single isomer, unassigned) [Example 96]
IC50 [nM]: 4.67
//
COMPOUND: O=C(Nc1cc(-c2[nH]c3ccc(F)nc3c2-c2cc(F)ccn2)ccn1)C(CC(F)F)c1ccc(F)cc1 (racemic) [Example 95]
IC50 [nM]: 5.62
//
COMPOUND: O=C(Nc1cc(-c2[nH]c3cccnc3c2-c2ccccn2)ccn1)C(CC(F)F)c1ccc(F)cc1 (single isomer, unassigned; (-)) [Example 12]
IC50 [nM]: 4.45
